test system: Escherichia coli (ATCC25922); assay: MIC, broth microdilution (CLSI), Escherichia coli ATCC25922; settings: ATCC25922, read-out: E. coli MIC, Table 15, NI = No inhibition
property.name: MIC

CN1CCN(CCCN2c3ccccc3Sc3cc(C(F)(F)F)cc(N)c32)CC1; > 100 µg/mL
O=C(Nc1cc(C(F)(F)F)cc2c1Nc1ccccc1S2)C1CCCC(O)C1 (stereo not drawn); > 100 µg/mL

Prompt: Which measured MIC value corresponds to "CN(C)CCCN1c2ccccc2Sc2cc(-c3nc4ccccc4[nH]3)ccc21" ?
Response: > 100 µg/mL

----------
tested on: K. pneumoniae ATCC 43816
property.name: MIC (mg/L)
Supply the numeric figure in mg/L, leaving out any unit text.

CCN(CC)c1ccc2c(c1)Sc1cc(C(F)(F)F)cc(NC3CCN(CCN)CC3)c1N2.Cl.Cl.Cl [compound 306]; 4
NCCCN1c2ccccc2Sc2cc(-c3cc4ccccc4[nH]3)ccc21 [compound 150]; 16
CC1CCCN(c2ccc3c(c2)Sc2cc(C(F)(F)F)cc(NC4CCN(CCN)CC4)c2N3)C1.Cl.Cl (stereo not drawn) [compound 301]; 4
CC1CCN(c2ccc3c(c2)Sc2cc(C(F)(F)F)cc(NC4CCN(CCN)CC4)c2N3)CC1.Cl.Cl [compound 307]; 4
Cl.Cl.NCCNCCC(=O)Nc1cc(C(F)(F)F)cc2c1Nc1ccc(N3CCCC3)cc1S2 [compound 302]; 16

Now look at this one.
Prompt: Fill in the recorded MIC for this compound, with K. pneumoniae ATCC 43816 as test system: Cl.Cl.NCCN1CCC(Nc2cc(C(F)(F)F)cc3c2Nc2ccc(N4CCCC4)cc2S3)CC1 [compound 284]
Response: 4
